System: ANGPTL3 gene
Experiment: ANGPTL3 gRNA/SpCas9 editing in primary cynomolgus hepatocytes (Table 3)
Format: cell-based, cynomolgus monkey
Cyno Primary Hepatocyte Editing % 500 ng/ml: recorded values
measuredMetric: Cyno Primary Hepatocyte Editing % 500 ng/ml (%)

- molecule: "GA130: ANGPTL3 gRNA; protospacer ATGATGGTAAGACACTTTGG (SEQ ID NO: 128) (nucleic acid, 2'-O-methyl at 1, 2, other sugars, backbone and T or U not given here; further chemistry not fully specified) guide: AUGATGGTAAGACACTTTGGGTTTTAGAGCTAGAAATAGCAAGTTAAAATAAGGCTAGTCCGTTATCAACTTGAAAAAGTGGCACCGAGTCGGTGCTTTT"
  assayResult: 25.90
- molecule: "GA127: ANGPTL3 gRNA; protospacer AACATGATGGTAAGACACTT (SEQ ID NO: 125) (nucleic acid, 2'-O-methyl at 1, 2, other sugars and backbone not given here; further chemistry not fully specified) guide: AACATGATGGTAAGACACTTGTTTTAGAGCTAGAAATAGCAAGTTAAAATAAGGCTAGTCCGTTATCAACTTGAAAAAGTGGCACCGAGTCGGTGCTTTT"
  assayResult: 33.67
